- System: Tyrosine-protein kinase ABL1 (Homo sapiens), P00519 [H396P]
- experimental-parameters: at 1 µM
endpoint-name: inhibition (%)

COc1cccc(-n2ncc3c(N/N=C/c4ccncc4)ncnc32)c1 : 94.9
NS(=O)(=O)c1ccc(N/C=C2\C(=O)Nc3ccc4ncsc4c32)cc1 : 31.5
Nc1nonc1-c1nc2cnccc2n1C1CCCCC1 : -0.69

---

- assay-system: Casein kinase I isoform gamma-1 (Homo sapiens) (UniProt Q9HCP0);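 also: reported value is the mean inhibition of CK1 gamma-1 kinase activity across replicate measurements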
- Sequence (Q9HCP0 whole entry, looked up, canonical isoform): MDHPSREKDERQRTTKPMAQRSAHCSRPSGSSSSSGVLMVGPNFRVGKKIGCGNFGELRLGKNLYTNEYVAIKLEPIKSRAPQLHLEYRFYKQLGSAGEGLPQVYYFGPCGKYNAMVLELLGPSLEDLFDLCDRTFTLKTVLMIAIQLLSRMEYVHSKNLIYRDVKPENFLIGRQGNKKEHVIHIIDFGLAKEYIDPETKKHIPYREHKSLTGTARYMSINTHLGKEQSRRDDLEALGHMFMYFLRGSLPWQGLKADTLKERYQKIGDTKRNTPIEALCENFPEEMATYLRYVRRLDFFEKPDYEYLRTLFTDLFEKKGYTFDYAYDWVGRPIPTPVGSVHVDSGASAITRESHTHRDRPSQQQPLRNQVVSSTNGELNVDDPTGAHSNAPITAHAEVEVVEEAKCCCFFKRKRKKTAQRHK
- experimental-parameters: at 1 µM
endpoint-name: inhibition (%)

NC(=O)c1sc(-n2cnc3cc(C(F)(F)F)ccc32)cc1OCc1ccccc1Br : -0.28
Nc1nonc1-c1nc2cnccc2n1C1CCCCC1 : -0.45
CCn1c(-c2nonc2N)nc2c(C#CC(C)(C)O)ncc(OCC3CCNCC3)c21 : 0.65
